Just for reference, patent US20220332795A1 is where these values come from.

subject of test: T1, recombinant biotinylated CD71 extracellular domain (Sino Biologics) with an N-terminal 6His tag (human, UniProt P02786 89-760, biotinylated (site not stated))
T1 construct: extracellular domain; also called hCD71; huCD71 ECD
protocol notes: primary solution ELISA screen
Kindly state RLU for each of the entries shown.
Reply numerically in RLU, unit not repeated.

RLU for SEQ ID NO 89 (designed binder, not shown: small tags and cut ends, FN3 domain, hit of the apical domain panning) MLPAPENLVVSRVTEDSARLSWTAPDAAFDSFWIEYYEGVIQGEAIVLTVPGSERSYDLTGLKPGTEYFVAIWGVKGGKWSVPLSAIFTT is 919000

RLU for SEQ ID NO 38 (designed binder, not shown: small tags and cut ends, FN3 domain, hit of the apical domain panning) MLPAPKNLVVSRVTEDSARLSWTAPDAAFDSFPILYLEHTVRSEAIVLTVPGSERSYDLTDLKPGTEYCVPIDGVKGGLRSRPLSAIFTT is 518000

RLU for SEQ ID NO 27 (designed binder, not shown: small tags and cut ends, FN3 domain, hit of the apical domain panning) MLPAPKNLVVSRVTEDSARLSWTAPDAAFDSFRISYAETVRQGEAIVLTVPGSERSYDLTVETGYRNWVMILGVKGGPGSLPLSAIFTT is 297000

RLU for SEQ ID NO 36 (designed binder, not shown: small tags and cut ends, FN3 domain, hit of the apical domain panning) MLPAPKNLVVSEVTEDSARLSWQGVARAFDSFLITYREQIFAGEVIVPTVPGSERSYDLTGLKPGTEYPVPIAGVKGGGPSAPLSAIFTT is 288000

RLU for SEQ ID NO 35 (designed binder, not shown: small tags and cut ends, FN3 domain, hit of the apical domain panning) MLPAPKNLVVSRVTEDSARLSWTAPDAAFDSFPISYIESIADGEAIVLTVPGSERSYDLTGLKPGTEYWVAIVGVKGGPFSWSLSAIVTT is 1.99e+06

RLU for SEQ ID NO 90 (designed binder, not shown: small tags and cut ends, FN3 domain, hit of the apical domain panning) MLPAPKNLVVSRVTEDSARLSWQGVARAFDSFLITYREQIFAGEVIVLTVPGSERSYDLTGLKPGTEYPVWIQGVKGGSPSAEFTT is 564000

RLU for SEQ ID NO 88 (designed binder, not shown: small tags and cut ends, FN3 domain, hit of the apical domain panning) MLPAPKNLVVSRVTEDSARLSWTAPDAAFDSFPIKYREVLRCGEAIVLTVPGSERSYDLTGLKPGTEYTVPITGVKGGFGSSPLSAIFTT is 515000

RLU for SEQ ID NO 39 (designed binder, not shown: small tags and cut ends, FN3 domain, hit of the apical domain panning) MLPAPKNLVVSRVTEDSARLSWTAPDAAFDSFPIPYTEPPDPGEAIVLTVPGSERSYDLTGLKPGTEYLVTILGVKGGSMSVPLSAIFTT is 1.48e+06

RLU for SEQ ID NO 3 (designed binder, not shown: small tags and cut ends, FN3 domain, hit of the apical domain panning) MLPAPKNLVVSRVTEDSARLSWTAPDAAFDSFNIEYAETRWYGEAIVLTVPGSERSYDLTGLKPGTEYVVPIDGVKGGIASKPLSAIFTT is 687000

RLU for SEQ ID NO 71 (designed binder, not shown: small tags and cut ends, FN3 domain, hit of the apical domain panning) MLPAPKNLVVSRVTEDSARLSWTAPDAAFDSFPISYLELSLYGEAIVLTVPGSERSYDLTGLKPGTEYPVGIAGVKGGVVSRPLSAIFTT is 2.64e+06

RLU for SEQ ID NO 79 (designed binder, not shown: small tags and cut ends, FN3 domain, hit of the apical domain panning) MLPAPKNLVVSRVTEDSARLSWTAPDAAFDSFVIEYTERFWSGEAIVLTVPGSERSYDLTGLKPGTEYSVPIDGVKGGQCSTPLSAIFTT is 273000

RLU for SEQ ID NO 40 (designed binder, not shown: small tags and cut ends, FN3 domain, hit of the apical domain panning) MLPAPKNLVVSRVTEDSARLSWTAPDAAFDSFTIDYWENRCPGEAIVLTVPGSERSYDLTGLKPGTEYCVWISGVKGGYSSWPLSAIFTT is 223000

RLU for SEQ ID NO 102 (designed binder, not shown: small tags and cut ends, FN3 domain, hit of the apical domain panning) MLPAPKNLVVSRVTEDSARLSWQGVARAFDSFLITYREQIFAGEVIVLTVPGSERSYDLTGLKPGTEYPVWIQGVKGGSPSAPLSAEFTT is 444000

RLU for SEQ ID NO 44 (designed binder, not shown: small tags and cut ends, FN3 domain, hit of the apical domain panning) MLPAPKNLVVSRVTEDSARLSWTAPDAAFDSFFIPYAEPSPTGEAIVLTVPGSERSYDLTGLKPGTEYSVLIHGVKGGHLSDPLSAIVTT is 715000

RLU for SEQ ID NO 99 (designed binder, not shown: small tags and cut ends, FN3 domain, hit of the apical domain panning) MLPAPKNLVVSRVTEDSARLSWTAPDAAFDSFFIPYAEPSPTGEAIVLTVPGSERSYDLTGLKPGTEYSVLIHGVKGGHLSDPLSVIFTT is 440000

RLU for SEQ ID NO 57 (designed binder, not shown: small tags and cut ends, FN3 domain, hit of the apical domain panning) MLPAPKNLVVSRVTEDSARLSWTAPDAAFDSFAIPYAELSRNGEAIVLTVPGSERSYDLTGLKPGTEYTVLIHGVKGGCLSDPLSAIFTT is 1.12e+06

RLU for SEQ ID NO 54 (designed binder, not shown: small tags and cut ends, FN3 domain, hit of the apical domain panning) MLPAPKNLVVSRVTEDSARLSWTAPDAAFDSFAIAYGEHIVIGEAIVLTVPGSERSYDLTGLKPGTEYMVPIAGVKGGPISLPLSAIFTT is 579000

RLU for SEQ ID NO 18 (designed binder, not shown: small tags and cut ends, FN3 domain, hit of the apical domain panning) MLPAPKNLVVSRVTEDSARLSWTAPDAAFDSFNIMYHEIIYVGEAIVLTVPGSERSYDLTGLKPGTEYPVPIEGVKGGGTSGPLSAIFTT is 828000
